# System: ACHN renal
# PROTOCOL DETAILS: NCI tumour cell line growth inhibition, 48 h; in the data active = GI50 below about 0.43 µM; inactive = the rest
Assign a class; possible classes are active, inactive

Ask: Test call, this compound: N#Cc1ccccc1C#C/C=C\C#Cc1cnccn1
Reply: inactive

Ask: Test call, this compound: COc1cccc2c1C(=N)c1c(O)c3c(c(O)c1C2=O)C[C@@](O)(C(C)=O)C[C@@H]3OC1CC(N)C(O)C(C)O1 (some centres not stated)
Reply: inactive

Ask: Test call, this compound: O=C1/C(=C/c2ccc([N+](=O)[O-])s2)Oc2ccc(Cl)cc21
Reply: active

Ask: Test call, this compound: COc1cc2c(cc1Nc1nc(Nc3ccsc3C(N)=O)c3cc[nH]c3n1)N(C(=O)CN(C)C)CCC2
Reply: inactive

Ask: Test call, this compound: COc1ccc(/C(C)=C(\c2ccc(Cl)cc2)c2ccc(OCCN3CCCCC3)cc2)cc1F
Reply: inactive

Ask: Test call, this compound: N#CC1=C(N)Oc2c(ccc3ccccc23)C1c1ccccc1Cl (configuration not stated)
Reply: inactive

Ask: Test call, this compound: CC(=O)OC1C(OC/C2=C/C3[C@@H](C(C)C)CC=C(C)[C@@H]3CC(OC(=O)/C=C/c3cn(C)cn3)[C@]3(C)C=C[C@@]2(O)O3)OCC(O)C1O (some centres not stated)
Reply: active

###

# Test system: RXF 393 renal
# PROTOCOL DETAILS: NCI tumour cell line growth inhibition, 48 h
OBSERVATION TYPE: log10 of TGI (log10 of the value in µM)
Remember, log10 of TGI, in µM.

Ask: Can you look up the measured log10 of TGI of C[N+]12C=CC=C1C(N1CCCC1)c1sc(-c3ccc(Cl)cc3)cc12 (stereo not drawn) for me?
Reply: 1.50

Ask: Can you look up the measured log10 of TGI of CC[N+]1(C)CCC(O)(/C=C/c2ccccc2)C(C(=O)/C=C/c2ccccc2)C1 (stereo not drawn) for me?
Reply: 1.29

Ask: Can you look up the measured log10 of TGI of CNCc1ccc(C)c(NC(=O)c2ccc(Nc3nc(-c4ccccc4)c4ccccc4n3)cc2)c1 for me?
Reply: 0.47

Ask: Can you look up the measured log10 of TGI of O=S(=O)(N1CCCCN(S(=O)(=O)C(F)(F)F)CCCN(S(=O)(=O)C(F)(F)F)CCCN(S(=O)(=O)C(F)(F)F)CCCCN(S(=O)(=O)C(F)(F)F)CCCN(S(=O)(=O)C(F)(F)F)CCC1)C(F)(F)F for me?
Reply: 1.85

Ask: Can you look up the measured log10 of TGI of CCCCCCc1cc2cc(C(=O)Nc3cccc(C(F)(F)F)c3)c(=N)oc2cc1O for me?
Reply: 0.34

Ask: Can you look up the measured log10 of TGI of COc1ccc(N2CCN(CC(=O)N3CCN(c4nnc(-c5ccc(Cl)cc5)c(-c5ccc(Cl)cc5)n4)CC3)CC2)cc1 for me?
Reply: 1.37

Ask: Can you look up the measured log10 of TGI of N#Cc1c(C#N)c(-c2ccco2)n(/N=C/c2ccco2)c1N for me?
Reply: 1.95

Ask: Can you look up the measured log10 of TGI of COc1cc2c(cc1Nc1nc(Nc3ccsc3C(N)=O)c3cc[nH]c3n1)N(C(=O)CN(C)C)CCC2 for me?
Reply: 0.52

Ask: Can you look up the measured log10 of TGI of CC(C)(C)OC(=O)N1CC(COS(C)(=O)=O)c2ccc(O)cc21 (stereo not drawn) for me?
Reply: -0.03

Ask: Can you look up the measured log10 of TGI of CN(C)CCCNc1ccc2nnn3c4ccc([N+](=O)[O-])cc4c(=O)c1c23 for me?
Reply: 0.63

Ask: Can you look up the measured log10 of TGI of COc1cc(C2C3=C(COC3=O)N(CCO)c3cc4c(cc32)CCC4)cc(OC)c1OC (stereo not drawn) for me?
Reply: -0.85

Ask: Can you look up the measured log10 of TGI of CCN(CC)CCC(CNc1c2ccc(Cl)cc2nc2ccc(OC)cc12)c1ccccc1 (stereo not drawn) for me?
Reply: 0.43

Ask: Can you look up the measured log10 of TGI of C#Cc1cccc(NC(=O)Nc2cccc(NC(=O)CCl)c2)c1 for me?
Reply: 1.80

Ask: Can you look up the measured log10 of TGI of COc1ccc(/C=C2\CC(C)CC3C2=NN(C(C)=O)C3c2ccc(OC)c(OC)c2)cc1OC (stereo not drawn) for me?
Reply: 1.59

Ask: Can you look up the measured log10 of TGI of CCOC(=O)c1ccccc1NC(c1ccccc1)c1ccc2cccnc2c1O (stereo not drawn) for me?
Reply: 1.37

Ask: Can you look up the measured log10 of TGI of COc1ccc(C2CC(c3cccc(Nc4ccnc5cc(Cl)ccc45)c3)=NN2c2ccc(Cl)cc2)cc1 (stereo not drawn) for me?
Reply: 1.87

Ask: Can you look up the measured log10 of TGI of CN1CCN(Cc2ccc(NC(=O)c3cncc(C#Cc4c(N)ncc5ccc(F)cc45)c3)cc2C(F)(F)F)CC1 for me?
Reply: 0.14

Ask: Can you look up the measured log10 of TGI of Nc1cc(N)c2nc(-c3ccccc3)c(Sc3ccc(F)cc3)nc2c1 for me?
Reply: 1.47

Ask: Can you look up the measured log10 of TGI of O=C(C(Cl)=C(Nc1ccccc1)Nc1ccccc1)C(Cl)Cl for me?
Reply: 1.75

Ask: Can you look up the measured log10 of TGI of COc1cc2c(cc1C)NC(=O)/C2=C/c1c(Cl)n(C)c2ccccc12 for me?
Reply: 1.29

Ask: Can you look up the measured log10 of TGI of COc1c(-c2ccc3c(c2)OCO3)oc2cc3c(c(OC)c2c1=O)OCO3 for me?
Reply: 1.84
